% Inhibition overview
# Tested on: Balamuthia mandrillaris (ATCC PRA-291) trophozoites, axenic culture
# method_description: primary screen, percent inhibition; higher = more effect of the substance;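 note: 0% = vehicle wells and 100% = lysate wells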
# condition_label: 20 µM
The whole screen tested about 2,000 compounds, of which about 15 (0.8%) showed an effect of 50% or more. This is one part of a sample in which strong results are shown more often than they occur.

- compound: "CCCCC[C@H](O)/C=C/[C@H]1[C@H](O)CC(=O)[C@@H]1CCCCCCC(=O)O [285959-L6]"
  % Inhibition [%]: -5.58
- compound: "CC(CCc1ccc(O)cc1)NCC(O)c1ccc(O)cc1 (stereo not drawn)"
  % Inhibition [%]: -1.52
- compound: "CC(C)/N=C(N)/N=C(\\N)Nc1ccc(Cl)cc1 [131550-L2]"
  % Inhibition [%]: 9.42
- compound: "NC(=O)C1(N2CCCCC2)CCN(CCCC(=O)c2ccc(F)cc2)CC1"
  % Inhibition [%]: 18.8
- compound: "COc1cc2nc(N(C)CCCNC(=O)C3CCCO3)nc(N)c2cc1OC (stereo not drawn)"
  % Inhibition [%]: 24.3
- compound: "Nc1ccc(S(=O)(=O)O)cc1"
  % Inhibition [%]: 31.3
- compound: "CC1(C)S[C@@H]2[C@H](NC(=O)[C@H](NC(=O)N3CCN(S(C)(=O)=O)C3=O)c3ccccc3)C(=O)N2[C@H]1C(=O)O"
  % Inhibition [%]: 18.9
- compound: "CC(C)/N=C(N)/N=C(\\N)Nc1ccc(Cl)cc1 [131550-L3]"
  % Inhibition [%]: 10.7
- compound: "C[C@H]1[C@H](OC(=O)CCC(=O)O)O[C@@H]2O[C@@]3(C)CC[C@H]4[C@H](C)CC[C@@H]1[C@@]24OO3"
  % Inhibition [%]: 56.1

Data origin: paper PMC6212833
